The reported numbers originate from PubChem BioAssay (NCI).

test system: SW-620 colon; test: NCI-60 one-dose screen, 48 h; details: 10 µM unless noted
Compounds without any hit were thinned out: in the full panel of roughly 83,000, 20% have a hit. Calls of active or inactive are those of the source. The calls were made as follows: active = growth percent below 10; inactive = the rest.
Your answer must be one of the following: 1 (active), 0 (inactive)

Here's what some known entries look like.
| molecule | category |
| --- | --- |
| C#Cc1nc(/C=C/C(=O)c2nccn2C)cs1 | 1 |
| O=C(NCc1ncc[nH]1)c1ccc(-c2nc3ccc4[nH]ncc4c3c3c2CCCC3)cc1 | 1 |
| COc1ccc2c(c1)c(CC(=O)[Se]CCC#N)c(C)n2C(=O)c1ccc(Cl)cc1 | 1 |
| CCCCCc1ccc(S(=O)(=O)Nc2cc(-c3csc(NC(=O)CN4CCN(C)CC4)n3)ccc2N2CCN(C)CC2)cc1 | 1 |

Lab log entry: CC1(C)CC[C@]2(C(=O)N3CCOCC3)CC[C@]3(C)C(=CC[C@@H]4[C@@]5(C)C/C(=C/c6ccccn6)C(=O)C(C)(C)[C@@H]5CC[C@]43C)[C@@H]2C1 — outcome as called in the assay?
0

Lab log entry: C=CCN(C)S(=O)(=O)/N=C1\NC(=O)NC1=C(Cl)Cl — outcome as called in the assay?
1

Lab log entry: COc1cc(Cn2cc3c(c2)-c2onc(CN4CCCC4)c2CC3)cc(OC)c1OC — outcome as called in the assay?
0

Lab log entry: Cc1ccc2sc3c(c2c1)OC(N)=C(C#N)C3c1ccc(Cl)cc1 (centres undefined) — outcome as called in the assay?
0

Lab log entry: CCc1ccc(SC2c3ccc(N(CC)CC)cc3Oc3nc(N)c(C#N)c(N)c32)cc1 (centres undefined) — outcome as called in the assay?
1
